target: muscarinic receptors; conditions: Table 2
READOUT TYPE: pKi
On this scale, pKi is minus log10 of a concentration expressed in M (mol/L).

{"columns": ["MOLECULE", "pKi"],
 "data": [
  ["Cc1cc([C@@H]2CCCN2C)on1.O=C(O)C(=O)O [Example 2, oxalate salt]", 3.80]
]}

Attention now shifts to the item below.
Ask: Quick one: pKi of COC(=O)C1=CCCN(C)C1 [Arecoline, reference compound] ?
Reply: 5.30

###

target: neuronal nicotinic receptors; assay: Displacement of [3H]-MCC or [3H]-cytisine from neuronal nicotinic receptors, whole rat brain membranes; type: binding; conditions: Table 1; read-out: Nicotinic Receptor Ki
Counter-ions that a name gives are not always drawn.
# binning rule on Ki: range A (below 20 nM), range B (20 nM to below 100 nM), range C (100 nM or more)

Look over these answered cases.
{"columns": ["COMPOUND", "EXPERIMENTAL SYSTEM", "ANSWER LABEL"],
 "data": [
  ["Cc1cc([C@H]2C[C@H](C)CN2C)on1 (relative stereo) [Example 24, oxalate salt]", "neuronal nicotinic receptors", "range B"],
  ["CCc1c(C)noc1[C@@H]1CCCN1C [Example 37, hydrochloride]", "neuronal nicotinic receptors", "range C"],
  ["Cc1cc([C@@H]2C[C@@H](C)CN2C)on1 [Example 28d, hydrochloride]", "neuronal nicotinic receptors", "range A"],
  ["CCN1CCC[C@H]1c1cc(C)no1 [Example 13, hydrochloride salt]", "neuronal nicotinic receptors", "range B"],
  ["Cc1cc([C@@H]2CCCN2)on1 [Example 1, oxalate salt]", "neuronal nicotinic receptors", "range C"],
  ["COc1cc([C@@H]2CCCN2C)on1 [Example 29, hydrochloride]", "neuronal nicotinic receptors", "range B"],
  ["CN1CCC[C@H]1c1cc(C(F)(F)F)no1 [Example 32, hydrochloride]", "neuronal nicotinic receptors", "range A"],
  ["CCc1cc([C@@H]2CCCN2)on1 [Example 3, oxalate salt]", "neuronal nicotinic receptors", "range C"]
]}

Ask: Using the reported Ki, which band applies to CN1CCC[C@H]1c1cc(Br)no1 [Example 27, hydrochloride] ?
Reply: range A

###

biological target: neuronal nicotinic receptors; experiment: Displacement of [3H]-MCC or [3H]-cytisine from neuronal nicotinic receptors, whole rat brain membranes; type: binding; conditions: Table 1; read-out: Nicotinic Receptor Ki
Where a name gives a salt, the structure may show the parent alone.
READOUT TYPE: Ki
Reply with a number, then the unit it belongs to.

{"columns": ["MOLECULE", "EXPERIMENTAL SYSTEM", "Ki"],
 "data": [
  ["Cc1noc([C@@H]2CCCN2C)c1Cc1ccccc1 [Example 36, hydrochloride]", "neuronal nicotinic receptors", "77.6 nM"],
  ["COCc1cc([C@@H]2CCCN2C)on1 [Example 20, fumarate salt]", "neuronal nicotinic receptors", "22 nM"],
  ["Cc1cc([C@H]2CCCN2)on1 [Example 14]", "neuronal nicotinic receptors", "10 nM"],
  ["CCc1cc([C@H]2CCCN2)on1 [Example 17, oxalate salt]", "neuronal nicotinic receptors", "12 nM"]
]}

Attention now shifts to the item below.
Ask: API: value(readout= Ki, system= neuronal nicotinic receptors, query= Cc1cc([C@@H]2CCCN2C)n(-c2ccccc2)n1 [Example 42, hydrochloride] )
Reply: 145 nM
